# reported Acceleration of growth, concentration; entries follow
Test system: S. aureus 209P
Assay: Metal ion or food preservative added to growth medium, viable count
Assay type: cell-based
Conditions: metal ion in growth medium
Protocol: To a standard medium for counting viable bacteria described below, each metal ion with varied concentration was added. […] Then, the number of viable bacteria was counted with time in a common procedure. Sample bacteria: S. aureus 209P as a representative of Gram-positive bacteria • E. coli 0-157 as a representative of Gram-negative bacteria Standard medium for counting viable bacteria: yeast extract 2.5 g, peptone 5 g, glucose 1 g, agar 15 g, pH 7.2
Your answer should be a plain number; it is taken to be in ppm<.

• O.O.O.O.O.O=S(=O)([O-])[O-].[Cu+2] = 5
• O.O.O.O.O.O.O.O=S(=O)([O-])[O-].[Zn+2] = 10
• O.O.O.O.O.O.O.O=S(=O)([O-])[O-].[Ni+2] = 5

// fetch Acceleration of growth, concentration for `O.O.O.O.O.O.[Cl-].[Cl-].[Co+2]` ; system: S. aureus 209P
20

---

System: sample bacteria (S. aureus 209P, E. coli O-157)
Assay: Death rate over time, food preservative in purified water pH 3.0
Conditions: 200 ppm, 5 min
Quick reference for Death rate among some molecules
Give only the figure.

• C/C=C/C=C/C(=O)O = 0
• O=C(O)c1ccccc1 = 0
• CCOC(=O)c1ccc(O)cc1 [Ethyl para-hydroxybenzoate] = 0
• C/C=C/C=C/C(=O)[O-].[K+] [Potassium sorbate] = 0

Note down Death rate recorded for O=C([O-])c1ccccc1.[Na+] [Sodium benzoate]
0

---

Tested on: E. coli O-157
Test: Metal ion or food preservative added to growth medium, viable count
Format: cell-based
Details: metal ion in growth medium
Items are presented alongside their recorded (a) Antiproliferative activity, concentration.

Worked examples, 4 molecules total:
* O.O.O.O.O.O.[Cl-].[Cl-].[Co+2] [Co^2+, CoCl2•6H2O] | 100~250 ppm
* O.O.O.O.O.O=S(=O)([O-])[O-].[Cu+2] [Cu^2+, CuSO4•5H2O] | 5~30 ppm
* O.O.O.O.O.O.O.O=S(=O)([O-])[O-].[Ni+2] [Ni^2+, NiSO4•7H2O] | 20~170 ppm
* O=[N+]([O-])[O-].[Ag+] [Ag^+, AgNO3] | 0.05~2 ppm

Note: attention shifts to another entry.
Supply recorded (a) Antiproliferative activity, concentration for O.O.O.O.O.O.O.O=S(=O)([O-])[O-].[Zn+2] [Zn^2+, ZnSO4•7H2O] here.
10~15 ppm

---

Test system: E. coli O-157
Assay: Metal ion or food preservative added to growth medium, viable count
Type: cell-based
Conditions: food preservative in growth medium
ASSAY METRIC: (b) Bacteriostatic activity, concentration (ppm>)
Report as a plain number; the unit ppm> is understood.

Answered examples (4):
- O=C(O)c1ccccc1 [Benzoic acid]: 180
- CCOC(=O)c1ccc(O)cc1 [Ethyl para-hydroxybenzoate]: 230
- C/C=C/C=C/C(=O)[O-].[K+] [Potassium sorbate]: 250
- C/C=C/C=C/C(=O)O [Sorbic acid]: 200

--- query ---
Provide one value: measured (b) Bacteriostatic activity, concentration of O=C([O-])c1ccccc1.[Na+] [Sodium benzoate]
220

---

Test system: E. coli O-157
Experiment: Metal ion or food preservative added to growth medium, viable count
Type: cell-based
Conditions: food preservative in growth medium
ASSAY METRIC: (a) Antiproliferative activity, concentration

Previously resolved entries follow.
- C/C=C/C=C/C(=O)O: 20~200 ppm
- O=C([O-])c1ccccc1.[Na+] [Sodium benzoate]: 40~300 ppm
- CCOC(=O)c1ccc(O)cc1 [Ethyl para-hydroxybenzoate]: 40~300 ppm

Enter measured (a) Antiproliferative activity, concentration, system E. coli O-157, for the compound shown: `O=C(O)c1ccccc1`
25~200 ppm

# return (a) Antiproliferative activity, concentration of C/C=C/C=C/C(=O)[O-].[K+] [Potassium sorbate] (system: E. coli O-157)
30~250 ppm

Origin of the recorded values: patent US20110236504A1
